Species: Rattus norvegicus
assay: Open TG-GATES - Regimen: Single
Format: toxicity, organism-based, Sprague-Dawley
Set-up: regimen Single, gender Male, age 6 weeks
conditionDetails: in vivo, po, 300 mg/kg, 9 h, tissue Plasma, route gavage, dose level Middle
So I've got a bunch of compounds here, and I need their K values.
One number for each entry, in meq/L.

Sample records with K:
compound: O=C(O)c1cc(/N=N/c2ccc(S(=O)(=O)Nc3ccccn3)cc2)ccc1O
u: meq/L
measuredNumber: 3.5
//
compound: O=C(O)c1cn(C2CC2)c2cc(N3CCNCC3)c(F)cc2c1=O
u: meq/L
measuredNumber: 5

Record K per entry; entries follow.
1. CCc1cc(C(N)=S)ccn1 [ETHIONAMIDE]
2. Clc1ccccc1CN1CCc2sccc2C1
3. C[C@H](CS)C(=O)N1CCC[C@H]1C(=O)O

Given back:
1. 4.2
2. 3.9
3. 5
